Exercise: state measured Kd for each of the molecules provided.
testedSystem: Full-length DnaK (FL, flDnaK) (Escherichia coli)
Sequence (P0A6Y8 2-638): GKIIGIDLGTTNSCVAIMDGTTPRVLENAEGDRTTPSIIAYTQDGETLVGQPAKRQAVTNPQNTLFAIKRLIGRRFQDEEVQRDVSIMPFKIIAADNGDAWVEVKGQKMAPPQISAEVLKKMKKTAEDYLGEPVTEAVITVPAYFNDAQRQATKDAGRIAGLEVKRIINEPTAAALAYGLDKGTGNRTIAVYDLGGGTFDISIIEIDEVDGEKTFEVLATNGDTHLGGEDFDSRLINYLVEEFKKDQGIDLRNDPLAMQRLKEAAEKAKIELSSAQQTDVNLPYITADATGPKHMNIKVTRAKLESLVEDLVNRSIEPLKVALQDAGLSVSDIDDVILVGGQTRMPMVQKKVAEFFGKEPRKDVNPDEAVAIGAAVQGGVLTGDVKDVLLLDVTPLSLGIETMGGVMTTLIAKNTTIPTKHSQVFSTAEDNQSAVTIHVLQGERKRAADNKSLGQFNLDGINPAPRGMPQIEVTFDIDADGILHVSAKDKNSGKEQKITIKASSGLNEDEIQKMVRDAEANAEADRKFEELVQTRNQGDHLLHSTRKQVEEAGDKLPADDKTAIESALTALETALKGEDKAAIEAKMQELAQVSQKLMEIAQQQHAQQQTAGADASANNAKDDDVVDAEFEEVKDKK
Value expressed in nM; do not type the unit.

Prompt: Can you share its Kd? I mean this molecule: O=C(NCc1c(Cl)cccc1Cl)c1cccs1 [F7]
Response: 1500

Prompt: And what about the molecule Nc1ncnc2c1ncn2[C@@H]1O[C@H](COP(=O)(O)OP(=O)(O)OP(=O)(O)O)[C@@H](O)[C@H]1O [ATP] ?
Response: 10

Prompt: And what about the molecule O=C(Nc1ccc2[nH]ccc2c1)c1cccs1 [D7, N-(1H-indol-5-yl)thiophene-2-carboxamide] ?
Response: 12700

Prompt: And what about the molecule O=C(NCc1cccc2ccccc12)c1cccs1 [D5] ?
Response: 1700

Recorded values, source paper PMC2858402.
